# System: E. coli TESEC Mtb Asd
# method_summary: growth (OD600 after 10 h); higher = more growth (less inhibition)
# run_parameters: arabinose induction (level): High; compound 0.1 mM; raw OD600 reference: median of DMSO wells 0.331, cell-free background 0.041
Structures can show the parent of a compound that is named as a salt.
measurement_kind: growth
One number for each entry.

>  <molecule>
CC1(C)S[C@@H]2[C@H](NC(=O)[C@H](N)c3ccc(O)cc3)C(=O)N2[C@H]1C(=O)O

>  <growth>
0.358

$$$$
>  <molecule>
COc1ccccc1OCCNCC(O)COc1cccc2[nH]c3ccccc3c12 (centres undefined)

>  <growth>
0.0533

$$$$
>  <molecule>
c1ccc(CC2=NCCN2)cc1 [Tolazoline hydrochloride]

>  <growth>
0.264

$$$$
>  <molecule>
CNC[C@H](O)[C@@H](O)[C@H](O)[C@H](O)CO

>  <growth>
0.325

$$$$
>  <molecule>
CN(C)CCOC(=O)C(c1ccccc1)C1(O)CCCC1 (centres undefined) [Cyclopentolate hydrochloride]

>  <growth>
0.198

$$$$
>  <molecule>
NNc1nncc2ccccc12 [Hydralazine hydrochloride]

>  <growth>
0.206

$$$$
>  <molecule>
Nc1ccc(S(=O)(=O)Nc2ccc(Cl)nn2)cc1

>  <growth>
0.392

$$$$
>  <molecule>
CNCCc1ccccn1 [Betahistine mesylate]

>  <growth>
0.299

$$$$

Hey, quick one: what's growth for each of these?
1. Cc1ccccc1C(OCCN(C)C)c1ccccc1 (centres undefined) [Orphenadrine hydrochloride]
2. CCCc1ncc(C[n+]2ccccc2C)c(N)n1 [Amprolium hydrochloride]
3. Clc1ccc2nsnc2c1NC1=NCCN1 [Tizanidine HCl]
4. CCCCNC(=O)NS(=O)(=O)c1ccc(C)cc1 [Tolbutamide]
5. CCN(CC)CCc1nc(-c2ccccc2)no1 [Oxalamine citrate salt]

Solution:
1: 0.18; 2: 0.359; 3: 0.248; 4: 0.222; 5: 0.307

Exercise: What measured growth goes with CCCC1O[C@@H]2C[C@H]3[C@@H]4CCC5=CC(=O)C=C[C@]5(C)[C@H]4[C@@H](O)C[C@]3(C)[C@]2(C(=O)CO)O1 (some centres undefined) [Budesonide] ?
Solution: 0.309
